- target or test system: human CXCR4 (human, UniProt P61073 1-352)
- Sequence (P61073 whole entry): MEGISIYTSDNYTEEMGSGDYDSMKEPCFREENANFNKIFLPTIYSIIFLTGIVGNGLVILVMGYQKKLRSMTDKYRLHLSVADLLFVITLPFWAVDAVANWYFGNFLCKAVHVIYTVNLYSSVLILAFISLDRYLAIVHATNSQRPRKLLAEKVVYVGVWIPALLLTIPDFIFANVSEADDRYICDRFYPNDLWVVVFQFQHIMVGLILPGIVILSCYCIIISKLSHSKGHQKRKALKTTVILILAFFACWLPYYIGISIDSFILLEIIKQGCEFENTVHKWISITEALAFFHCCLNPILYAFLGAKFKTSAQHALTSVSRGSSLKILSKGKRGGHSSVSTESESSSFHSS
- assay notes: cell-based or functional assay
*1 amine or outer side, *2 acyl side, *3 side chain or, on linkers, in order; H or OH if unused. Bridges are numbered along the chain shown (N, C = ends). Primed or numbered codes have the meaning given here. [ ]: non-standard residue; d: D form. A8″‑42 = template L-Pro residue whose 4-amino group is acylated with CH3-(OCH2CH2)2-OCH2-CO (2-[2-(2-methoxyethoxy)ethoxy]acetyl), per the notes; (Pip)G = N-{3-[1'-(4'-methylpiperazinyl)]-propyl}-glycine, CN1CCN(CCCN(CC(=O)[*:2])[*:1])CC1; 2Nal = N[C@@H](Cc1ccc2ccccc2c1)C(=O)O; Cit = NC(=O)NCCC[C@H](N)C(=O)O; Dab = NCC[C@H](N)C(=O)O
// reported IC50 (nM) Ca2+ assay (method 2) for each item listed
Please append the unit to your numeric answer.

cyclo(YR[Cit]CRA[dP]RRWCY[Cit]K[dP]P) (disulfide 4-11; SMILES C[C@@H]1NC(=O)[C@H](CCCNC(=N)N)NC(=O)[C@@H]2CSSC[C@H](NC(=O)[C@H](Cc3c[nH]c4ccccc34)NC(=O)[C@H](CCCNC(=N)N)NC(=O)[C@H](CCCNC(=N)N)NC(=O)[C@H]3CCCN3C1=O)C(=O)N[C@@H](Cc1ccc(O)cc1)C(=O)N[C@@H](CCCNC(N)=O)C(=O)N[C@@H](CCCCN)C(=O)N1CCC[C@@H]1C(=O)N1CCC[C@H]1C(=O)N[C@@H](Cc1ccc(O)cc1)C(=O)N[C@@H](CCCNC(=N)N)C(=O)N[C@@H](CCCNC(N)=O)C(=O)N2) [Example 143]    0.9 nM

Query: For cyclo(YRNCRG[dP]RR[2Nal]CYQK[dP]P) (disulfide 4-11; SMILES N=C(N)NCCC[C@@H]1NC(=O)[C@@H]2CSSC[C@H](NC(=O)[C@H](Cc3ccc4ccccc4c3)NC(=O)[C@H](CCCNC(=N)N)NC(=O)[C@H](CCCNC(=N)N)NC(=O)[C@H]3CCCN3C(=O)CNC1=O)C(=O)N[C@@H](Cc1ccc(O)cc1)C(=O)N[C@@H](CCC(N)=O)C(=O)N[C@@H](CCCCN)C(=O)N1CCC[C@@H]1C(=O)N1CCC[C@H]1C(=O)N[C@@H](Cc1ccc(O)cc1)C(=O)N[C@@H](CCCNC(=N)N)C(=O)N[C@@H](CC(N)=O)C(=O)N2) [Example 92] , what is its reported IC50 (nM) Ca2+ assay (method 2)?
Response: 1.1 nM

Query: For cyclo(YRSCRG[dP]RR[2Nal]CYQK[dP]P) (disulfide 4-11; SMILES N=C(N)NCCC[C@@H]1NC(=O)[C@@H]2CSSC[C@H](NC(=O)[C@H](Cc3ccc4ccccc4c3)NC(=O)[C@H](CCCNC(=N)N)NC(=O)[C@H](CCCNC(=N)N)NC(=O)[C@H]3CCCN3C(=O)CNC1=O)C(=O)N[C@@H](Cc1ccc(O)cc1)C(=O)N[C@@H](CCC(N)=O)C(=O)N[C@@H](CCCCN)C(=O)N1CCC[C@@H]1C(=O)N1CCC[C@H]1C(=O)N[C@@H](Cc1ccc(O)cc1)C(=O)N[C@@H](CCCNC(=N)N)C(=O)N[C@@H](CO)C(=O)N2) [Example 96] , what is its reported IC50 (nM) Ca2+ assay (method 2)?
Response: 3 nM

Query: For cyclo(YR[Cit]CRG[dP]RRWCY[Cit]K[dP][A8″‑42]) (disulfide 4-11) [Example 116] , what is its reported IC50 (nM) Ca2+ assay (method 2)?
Response: 14.5 nM

Query: For cyclo(YRLCRG[dP]RR[2Nal]CYQK[dP]P) (disulfide 4-11; SMILES CC(C)C[C@@H]1NC(=O)[C@H](CCCNC(=N)N)NC(=O)[C@H](Cc2ccc(O)cc2)NC(=O)[C@@H]2CCCN2C(=O)[C@H]2CCCN2C(=O)[C@H](CCCCN)NC(=O)[C@H](CCC(N)=O)NC(=O)[C@H](Cc2ccc(O)cc2)NC(=O)[C@@H]2CSSC[C@H](NC1=O)C(=O)N[C@@H](CCCNC(=N)N)C(=O)NCC(=O)N1CCC[C@@H]1C(=O)N[C@@H](CCCNC(=N)N)C(=O)N[C@@H](CCCNC(=N)N)C(=O)N[C@@H](Cc1ccc3ccccc3c1)C(=O)N2) [Example 97] , what is its reported IC50 (nM) Ca2+ assay (method 2)?
Response: 4.3 nM

Query: For cyclo(YRTCRG[dP]RRYCYQK[dP]P) (disulfide 4-11; SMILES C[C@@H](O)[C@@H]1NC(=O)[C@H](CCCNC(=N)N)NC(=O)[C@H](Cc2ccc(O)cc2)NC(=O)[C@@H]2CCCN2C(=O)[C@H]2CCCN2C(=O)[C@H](CCCCN)NC(=O)[C@H](CCC(N)=O)NC(=O)[C@H](Cc2ccc(O)cc2)NC(=O)[C@@H]2CSSC[C@H](NC1=O)C(=O)N[C@@H](CCCNC(=N)N)C(=O)NCC(=O)N1CCC[C@@H]1C(=O)N[C@@H](CCCNC(=N)N)C(=O)N[C@@H](CCCNC(=N)N)C(=O)N[C@@H](Cc1ccc(O)cc1)C(=O)N2) [Example 145] , what is its reported IC50 (nM) Ca2+ assay (method 2)?
Response: 0.38 nM

Query: For cyclo(YR[Cit]CRG[dP]R[(Pip)G][2Nal]CY[Cit]K[dP]P) (disulfide 4-11; SMILES CN1CCN(CCCN2CC(=O)N[C@@H](Cc3ccc4ccccc4c3)C(=O)N[C@H]3CSSC[C@H](NC(=O)[C@H](CCCNC(N)=O)NC(=O)[C@H](CCCNC(=N)N)NC(=O)[C@H](Cc4ccc(O)cc4)NC(=O)[C@@H]4CCCN4C(=O)[C@H]4CCCN4C(=O)[C@H](CCCCN)NC(=O)[C@H](CCCNC(N)=O)NC(=O)[C@H](Cc4ccc(O)cc4)NC3=O)C(=O)N[C@@H](CCCNC(=N)N)C(=O)NCC(=O)N3CCC[C@@H]3C(=O)N[C@@H](CCCNC(=N)N)C2=O)CC1) [Example 126] , what is its reported IC50 (nM) Ca2+ assay (method 2)?
Response: 19.5 nM

Query: For cyclo(YR[Cit]CRG[dP][Dab]RWCYQK[dP]P) (disulfide 4-11; SMILES N=C(N)NCCC[C@@H]1NC(=O)[C@@H]2CSSC[C@H](NC(=O)[C@H](Cc3c[nH]c4ccccc34)NC(=O)[C@H](CCCNC(=N)N)NC(=O)[C@H](CCN)NC(=O)[C@H]3CCCN3C(=O)CNC1=O)C(=O)N[C@@H](Cc1ccc(O)cc1)C(=O)N[C@@H](CCC(N)=O)C(=O)N[C@@H](CCCCN)C(=O)N1CCC[C@@H]1C(=O)N1CCC[C@H]1C(=O)N[C@@H](Cc1ccc(O)cc1)C(=O)N[C@@H](CCCNC(=N)N)C(=O)N[C@@H](CCCNC(N)=O)C(=O)N2) [Example 109] , what is its reported IC50 (nM) Ca2+ assay (method 2)?
Response: 3 nM
